Assay: AP1 Signaling Pathway (AID 357);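 further: ME-180 reporter cells stimulated with EGF at its EC50 level; on the % scale 0 is the no-effect control and ±100 the full control effect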
Details: ME-180 (cervical carcinoma) AP-1-bla reporter, EGF-induced, beta-lactamase ratio, 5 h; at 7.69 µM (top of the series) unless noted
Results filed as inconclusive are left out.
METRIC: activity change, negative = inhibition (%)

> print(dat)
                                   molecule                                  metric  uom  measured.result
1  O=C(c1ccco1)N1CCC2(CC1)CN(Cc1cc(C(F)(F)F)cc(C(F)(F)F)c1)C2  activity change, negative = inhibition    %             5.99
2  O=C(c1ccco1)N1CCC2(CC1)CCN(c1cccc(-c3ccccc3)c1)CC2  activity change, negative = inhibition    %             8.59
3                c1ncc(-c2ccoc2)c(NC2CC2)n1  activity change, negative = inhibition    %             16.6
4  CS(=O)(=O)N1CCC[C@@]2(CCN(C(=O)Nc3ccccc3)C2)C1  activity change, negative = inhibition    %            -1.88
5  O=C(Nc1ccccc1)N1CCCC2(CCN(C(=O)c3cc(C(F)(F)F)cc(C(F)(F)F)c3)CC2)C1  activity change, negative = inhibition    %            -28.2
6        O=C(Nc1cccc(F)c1)N1CCCC2(CCNCC2)C1  activity change, negative = inhibition    %            -6.17
7           Cc1nc2cnc(N(C)C)nc2n(CCC#N)c1=O  activity change, negative = inhibition    %             -8.9
8           COc1ccccc1-c1cc(NCc2ccccc2)ncn1  activity change, negative = inhibition    %             3.71
9  COCC(=O)N1CCC2(CC1)CN(C(=O)Nc1ccc(OC)cc1)C2  activity change, negative = inhibition    %            -2.15

----------
Assay: qHTS for differential inhibitors of proliferation of Plasmodium falciparum line Dd2 (AID 1882);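 further: compound exposure of 72 h on infected erythrocytes; plate controls were DMSO vehicle for no effect and 0.29 µM artemisinin for full effect; nearly all actives have a fitted effect of over 65% in size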
Conditions: Plasmodium falciparum Dd2 proliferation inhibition; series mostly up to 28.7 µM
Inconclusive results are not listed. Active and inactive are the calls of the source. The call rests on the fitted dose curve; in most records, active means well fitted inhibition curve with a large enough effect; inconclusive means small, poorly fitted or top-dose-only effect; inactive means flat fitted curve, though single readings scatter.
METRIC: outcome

> print(dat)
                                   compound  measured.result
1  CN1C2CC(OC(=O)C(CO)c3ccccc3)CC1C1OC12 (stereo not drawn)         inactive
2  COc1cc(=O)n(C)c2c(OCC(O)C(C)(C)O)cccc12 (stereo not drawn)         inactive
3  CSc1nc(N)c2ncn([C@@H]3O[C@H](COP(=O)(O)OP(=O)(O)OP(=O)(O)O)[C@H](O)[C@H]3O)c2n1         inactive

----------
Test: qHTS drug screen for cell cycle checkpoint inhibitors in PARPi-resistant BRCA-mutant ovarian cancer cell lines. (AID 1963452)
Details: PEO1/OlaR viability, CellTiter-Glo luminescence, 96 h; measured here: PEO4 Z-AUC; stronger effect = lower value
Description: Women's Malignancies Branch, Center for Cancer Research (CCR), National Cancer Institute (NCI), National Institutes of Health (NIH), Bethesda, MD Poly (ADP-ribose) polymerase inhibitors (PARPis) have changed the treatment paradigm in breast cancer gene (BRCA) - mutant high-grade serous ovarian carcinoma (HGSC). […] 6; Detection; Luminescence, PHERAstar (BMG Labtech) plate reader. […] 6. Luminescence readings were taken using PHERAstar (BMG Labtech). […]
Where a SMILES comes first, the peptide text is derived from it.
Listed here are compounds together with their documented Z-AUC.
METRIC: Z-AUC

COMPOUND	METRIC	MEASURED RESULT
O=C(/C=C/C#Cc1cccc(NS(=O)(=O)c2ccccc2)c1)NO	Z-AUC	-0.647
CCC(=O)OCC(=O)C1(OC(=O)CC)C(C)CC2C3CCC4=CC(=O)C=CC4(C)C3(F)C(O)CC21C (stereo unspecified)	Z-AUC	-0.145
Cn1cc(/C=C/C(=O)c2cccc(F)c2)cc1/C=C/C(=O)NO	Z-AUC	0.291
CC(C)C[C@H](NC(=O)[C@H](Cc1ccccc1)NC(=O)OCc1ccccc1)C(=O)C=O	Z-AUC	0.338
CO[C@H]1/C=C/O[C@@]2(C)Oc3c(C)c(O)c4c(O)c(c5c(nc6cc(C)ccn65)c4c3C2=O)NC(=O)/C(C)=C\C=C\[C@H](C)[C@H](O)[C@@H](C)[C@@H](O)[C@@H](C)[C@H](OC(C)=O)[C@@H]1C	Z-AUC	-1.09
N[C@@H](CCC(=O)O)C(=O)N[C@@H](Cc1c[nH]c2ccccc12)C(=O)O (H-Glu-Trp-OH)	Z-AUC	0.474
CO[C@H]1/C=C\C=C(\C)C(=O)NC2=CC(=O)C(NCCN(C)C)=C(C[C@@H](C)C[C@H](OC)[C@H](O)[C@@H](C)/C=C(/C)[C@@H]1OC(N)=O)C2=O	Z-AUC	-1.76
Cc1c(NC(=O)c2cc(C(N)=O)nc3cc(F)ccc23)c(C(F)(F)F)nn1Cc1ccc(C(C)(C)C)cc1	Z-AUC	0.0379
CC(C)NCCCn1c(Sc2cc(Cl)cc(Cl)c2)nc2c(N)ncnc21	Z-AUC	0.533
CNC(=O)Cn1cc(-c2ccc3c(c2)C(F)CC32NC(=O)N(CC(=O)N(Cc3ccc(F)cc3)C(C)C(F)(F)F)C2=O)cn1 (stereo unspecified)	Z-AUC	0.562
NS(=O)(=O)Oc1ccc2c3c(c(=O)oc2c1)CCCCC3	Z-AUC	-0.024
C/C=C1\NC(=O)[C@H]2CSSCC/C=C\[C@H](CC(=O)N[C@H](C(C)C)C(=O)N2)OC(=O)[C@H](C(C)C)NC1=O	Z-AUC	-3.56
CC(C)(C)c1[nH]cnc1/C=c1\[nH]c(=O)/c(=C/c2ccccc2)[nH]c1=O	Z-AUC	-2.52
CC(C)(c1ccc(OCC(O)CO)cc1)c1ccc(OCC(O)CCl)cc1 (stereo unspecified)	Z-AUC	1.22
Cc1ccc(S(=O)(=O)Nc2cc(-c3ccc(C#N)s3)ccc2C)cc1	Z-AUC	-2.13
[2H]c1nc(C)nc([2H])c1-c1cc(NC[C@@H](C)c2cccc3c(C(=O)NC)ccnc23)ncn1	Z-AUC	1.18
CC(C)(O)CNc1ncc(-c2ccnc(Nc3ccncc3)n2)c(CC2CC2)n1	Z-AUC	0.228
CN1C(=O)N[C@H](Cc2c[nH]c3c(Cl)cccc23)C1=O	Z-AUC	0.653
COC(=O)[C@H]1[C@@H](O)[C@@]2(O)c3c(OC)cc(O[C@@H]4O[C@@H]([C@@H](O)CO)CO[C@H]4OC)cc3O[C@@]2(c2ccc(OC)cc2)[C@@H]1c1ccccc1	Z-AUC	0.648
CC#Cc1cncc(-c2ccc3c(c2)[C@@]2(N=C(C)C(N)=N2)C2(CCC(OC)CC2)C3)c1 (stereo partly specified)	Z-AUC	0.345
COc1ccc(-c2oc3c(CC=C(C)C)c(OC4O[C@H](CO)[C@@H](O)[C@H](O)[C@H]4O)cc(O)c3c(=O)c2OC2O[C@@H](C)[C@H](O)[C@@H](O)[C@H]2O)cc1 (stereo partly specified)	Z-AUC	0.222
CC1Cc2ccccc2N1C(=O)Cc1nc(N2CCOCC2)cc(=O)[nH]1 (stereo unspecified)	Z-AUC	-0.574
Cn1cc(-c2ccc(-c3cncc(Cl)c3N3CCC4(CCNC4=O)CC3)cc2)cn1	Z-AUC	-1.18
O=C(Nc1ccccc1)Nc1ccc(-c2ccc(C(=O)[C@@H]3CCC[C@H]3C(=O)O)cc2)cc1	Z-AUC	0.797
N=C1CCCN1Cc1[nH]c(=O)[nH]c(=O)c1Cl	Z-AUC	-0.23
O=C(O)CCNc1cc(N2CCc3ccccc3CC2)nc(-c2cccnc2)n1	Z-AUC	0.897
